tested on: SR leukemia; experiment: NCI tumour cell line growth inhibition, 48 h; in the data active means GI50 below about 0.43 µM; inactive means the rest
Use one of these outcomes when replying: active, inactive

Input: What did this assay record as the result for COc1cccc2c1c1nc3cc(C)c(C)cc3nc1n2CCN(C)C ?
Output: inactive

Input: What did this assay record as the result for COc1ccc(F)cc1C(=O)c1cnc(NC2CCN(S(C)(=O)=O)CC2)nc1N ?
Output: inactive

Input: What did this assay record as the result for C/C(=C\c1c[nH]c2ccccc12)[N+](=O)[O-] ?
Output: inactive

Input: What did this assay record as the result for COc1cnc2c(c1)C(=O)c1c-2n(CCCN2CCN(C)CC2)c(=O)c2cc(Cl)ccc12 ?
Output: inactive

Input: What did this assay record as the result for COc1ccc(-c2nc(-c3nc4cc(C)c(C)cc4[nH]3)cc3c2[nH]c2ccccc23)cc1 ?
Output: inactive

Input: What did this assay record as the result for COC(=O)c1c2c(c(C)[n+]([O-])c1C)C(=O)C(NCc1ccc(F)c(F)c1)=CC2=O ?
Output: inactive

Input: What did this assay record as the result for C/C(=C\c1ccn(-c2ccc(N)cc2)n1)[C@@H]1C[C@@H]2O[C@]2(C)CCC[C@H](C)[C@H](O)[C@@H](C)C(=O)C(C)(C)[C@@H](O)CC(=O)O1 ?
Output: active

Input: What did this assay record as the result for C=C[C@]1(C)C=C2C(=O)[C@@]3(O)OC(=O)[C@@]4(CCCC(C)(C)[C@H]34)[C@@]2(O)CC1 ?
Output: inactive

Input: What did this assay record as the result for Clc1ccc(CO/N=C(\Cn2ccnc2)c2ccc(Cl)cc2Cl)c(Cl)c1 ?
Output: inactive

Input: What did this assay record as the result for Cn1cc(C2=C(c3c4n(c5ccccc35)CCC(CN)CC4)C(=O)NC2=O)c2ccccc21 (configuration not stated) ?
Output: inactive

Input: What did this assay record as the result for [N-]=[N+]=CC(=O)OCC(N)C(=O)O (configuration not stated) ?
Output: inactive

Input: What did this assay record as the result for C[C@]12CCC(=O)C=C1CC[C@@H]1[C@@H]2CC[C@]2(C)C(=O)/C(=C/c3cccc(OCCN4CCOCC4)c3)C[C@@H]12 ?
Output: inactive

* * *

system: NCI-H460 lung
Use one of these outcomes when replying: 1 = active, -1 = inactive

Input: What did this assay record as the result for CN1CCN(Cc2ccc(NC(=O)c3cncc(C#Cc4c(N)ncc5cc(F)ccc45)c3)cc2C(F)(F)F)CC1 ?
Output: -1

Input: What did this assay record as the result for CO[C@H]1CC[C@@]2(C)C(=CC[C@H]3[C@@H]4C[C@H](O)C[C@@]4(C)CC[C@@H]32)C1 ?
Output: -1

Input: What did this assay record as the result for CN(C)CC1CCn2c(c(C3=C(c4cn(C)c5ccccc45)C(=O)NC3=O)c3ccccc32)C1 (centres undefined) ?
Output: -1

Input: What did this assay record as the result for COc1cnc2c(c1)C(=O)c1c-2n(CCCN2CCN(C)CC2)c(=O)c2cc(Cl)ccc12 ?
Output: 1

* * *

test system: MDA-MB-231 breast; assay: NCI tumour cell line growth inhibition, 48 h
Measured attribute: log10(TGI) (log10 of the value in µM)
The common logarithm of TGI in µM is what is listed.

Input: What value of log10(TGI) has been reported for the following molecule? O=C1NC(Cc2c[nH]c3ccccc23)C(=O)N2C(c3ccccc3)c3[nH]c4ccccc4c3C[C@@H]12 (some centres undefined)
Output: 1.63

Input: What value of log10(TGI) has been reported for the following molecule? COc1cccc2c1c1nc3cc(C)c(C)cc3nc1n2CCN(C)C
Output: 0.98

Input: What value of log10(TGI) has been reported for the following molecule? COC(=O)Nc1nc2ccc(Oc3ccc(NC(=O)Nc4cccc(Cl)c4)cc3)cc2[nH]1
Output: 1.29

Input: What value of log10(TGI) has been reported for the following molecule? O=C1c2cccnc2C(=O)c2c1nc1ccccc1c2-c1cncc(-c2c3c(nc4ccccc24)C(=O)c2cccnc2C3=O)c1
Output: -0.03

Input: What value of log10(TGI) has been reported for the following molecule? CCCC(=O)NNc1[nH]c(-c2ccc(OC)cc2)cc1C(=O)OCC
Output: 1.48

Input: What value of log10(TGI) has been reported for the following molecule? CN1CCN(Cc2ccc(Nc3ncc(Cl)c(Nc4ccccc4S(=O)(=O)N(C)C)n3)cc2)CC1
Output: -0.42

Input: What value of log10(TGI) has been reported for the following molecule? COC1/C=C\OC2(C)Oc3c(C)c(O)c4c(O)c(c(CN(C)C)c(O)c4c3C2=O)NC(=O)/C(C)=C\C=C/C(C)C(O)C(C)C(O)C(C)C(OC(C)=O)C1C (centres undefined)
Output: 1.97

Input: What value of log10(TGI) has been reported for the following molecule? COc1ccc2c(c1)/C(=C\c1cccc(/C=C3/C(=O)Nc4ccc(OC)cc43)n1)C(=O)N2
Output: 0.68

Input: What value of log10(TGI) has been reported for the following molecule? O=C1/C(=C/C(Cl)=C/c2ccccc2)SC(=S)N1CCc1ccc(O)cc1
Output: 1.54

Input: What value of log10(TGI) has been reported for the following molecule? Cc1cc2nc3c(C#N)c(-c4ccccc4)cc(Nc4ccc(F)cc4)n3c2cc1C
Output: 1.71

* * *

system: ACHN renal; assay: NCI tumour cell line growth inhibition, 48 h
Measured attribute: TGI (µM)
Give the quantity in µM, number only.

Input: What value of TGI has been reported for the following compound? COc1cc2c3c(c4cc(OC)c(OC)cc4c2cc1OC)[C@H](O)[C@@H]1CCCN1C3
Output: 0.3

Input: What value of TGI has been reported for the following compound? C/C(=N/NC(=S)N1CCCC1)c1cccc(/C(C)=N\NC(=S)N2CCCC2)n1
Output: 3.4

* * *

system: M14 melanoma; assay: NCI tumour cell line growth inhibition, 48 h
Field: GI50. Provide a value for each of the compounds that follow.

Input: What value of GI50 has been reported for the following compound? O=C(/C=C\Sc1nccc(C(F)(F)F)n1)c1ccc(Br)cc1
Output: 17900 nM

Input: What value of GI50 has been reported for the following compound? C=C[C@]1(C)C=C2C(=O)[C@@]3(O)OC(=O)[C@@]4(CCCC(C)(C)[C@H]34)[C@@]2(O)CC1
Output: 1790 nM

Input: What value of GI50 has been reported for the following compound? CN1CCN(Cc2ccc(NC(=O)c3cncc(C#Cc4c(N)ncc5cc(F)ccc45)c3)cc2C(F)(F)F)CC1
Output: 378 nM

Input: What value of GI50 has been reported for the following compound? COc1ccc(F)cc1C(=O)c1cnc(NC2CCN(S(C)(=O)=O)CC2)nc1N
Output: 4510 nM

Input: What value of GI50 has been reported for the following compound? CC/C(=C(\CC)c1ccc(OCCN(CC)CC)cc1)c1ccc(OCCN(CC)CC)cc1
Output: 771 nM

Input: What value of GI50 has been reported for the following compound? Cc1ccc(C(=O)NC2CCCCC2)cc1-c1ccc(C(=O)NCC2CC2)cc1
Output: > 25000 nM

* * *

system: M14 melanoma; experiment: NCI tumour cell line growth inhibition, 48 h
Field: TGI. Provide a value for each of the molecules that follow.

Input: What value of TGI has been reported for the following molecule? CC/C(=C(\CC)c1ccc(OCCN(CC)CC)cc1)c1ccc(OCCN(CC)CC)cc1
Output: 2.27 µM

Input: What value of TGI has been reported for the following molecule? Cc1ccnc2nc3[nH]c4ccccc4c3cc12
Output: > 100 µM

Input: What value of TGI has been reported for the following molecule? Nc1ccc(C(=O)NN2C(=O)C(Cl)C2c2ccccc2O)cc1 (stereo unspecified)
Output: > 100 µM

Input: What value of TGI has been reported for the following molecule? O=C(O)c1cccc(CC(Br)C(=O)O)c1 (stereo unspecified)
Output: > 100 µM

Input: What value of TGI has been reported for the following molecule? CC(C)N(c1cc2c(cc1F)c(=O)c(C(=O)O)cn2-c1ccc(N2CCN(C)CC2)cn1)C(C)C
Output: > 100 µM

Input: What value of TGI has been reported for the following molecule? COc1ccc(CCN(C)C(=O)CC(C#N)(c2ccccc2)c2ccc(OC)c(OC)c2)cc1OC (stereo unspecified)
Output: > 100 µM

Input: What value of TGI has been reported for the following molecule? C=C1CC(COc2ccc3ccc(=O)oc3c2)(c2ccccc2)OC1=O (stereo unspecified)
Output: 2.4 µM

Input: What value of TGI has been reported for the following molecule? CCn1c(=O)c2c3ccc(O)cc3oc2c2ccc(O)cc21
Output: > 100 µM

Input: What value of TGI has been reported for the following molecule? CC(C)(C)C(=O)Nc1cccc(-c2ccc[nH]2)n1
Output: > 100 µM

Input: What value of TGI has been reported for the following molecule? COc1cc(-c2nc3ccccc3s2)ccc1OCc1nc2n(n1)S(=O)(=O)c1ccccc1N2C
Output: > 100 µM

Input: What value of TGI has been reported for the following molecule? CCCCc1ccc(N2C(=O)c3cccnc3S2(=O)=O)cc1
Output: > 100 µM
